Entry source: paper PMC6681697

Test system: LNCaP xenografts
Assay: Ex vivo biodistribution and blocking studies in mice bearing LNCaP xenografts
Settings: 1 h blocked (coinjection of DCFPyL 0.5 mg)
Define the label as Met when kidney uptake is strictly less than 2 %ID/g and as Not met in all remaining cases.

[Q] Answer whether the compound O=C(O)CC[C@H](NC(=O)N[C@@H](CCCCNC(=O)[C@H](Cc1ccc2ccccc2c1)NC(=O)[C@H]1CC[C@H](CNC(=O)Cn2cc(C[n+]3ccc([B-](F)(F)F)cc3)nn2)CC1)C(=O)O)C(=O)O [^18F-6] has kidney uptake strictly less than 2 %ID/g
[A] Met

[Q] Threshold test, kidney uptake < 2 %ID/g: C[N+](C)(Cc1cn(CC(=O)NC[C@H]2CC[C@H](C(=O)N[C@@H](Cc3ccc4ccccc4c3)C(=O)NCCCC[C@H](NC(=O)N[C@@H](CCC(=O)O)C(=O)O)C(=O)O)CC2)nn1)C[B-](F)(F)F [^18F-5]
[A] Met

[Q] Record C[N+](C)(Cc1cn(CC(=O)NCCOCCOCCC(=O)N[C@@H](Cc2ccc3ccccc3c2)C(=O)NCCCC[C@H](NC(=O)N[C@@H](CCC(=O)O)C(=O)O)C(=O)O)nn1)C[B-](F)(F)F [^18F-7] : is its kidney uptake strictly below 2 %ID/g?
[A] Met

====

Test system: LNCaP xenografts
Test: Ex vivo biodistribution and blocking studies in mice bearing LNCaP xenografts
Conditions: 1 h blocked (coinjection of DCFPyL 0.5 mg)
Examples of molecules with documented muscle uptake follow.
Express the result in %ID/g but write the number alone.

>>> observed("O=C(O)CC[C@H](NC(=O)N[C@@H](CCCCNC(=O)c1ccc(Cn2cc(C[n+]3ccc([B-](F)(F)F)cc3)nn2)nc1)C(=O)O)C(=O)O [^18F-4]")
0.11
>>> observed("C[N+](C)(Cc1cn(CC(=O)NC[C@H]2CC[C@H](C(=O)N[C@@H](Cc3ccc4ccccc4c3)C(=O)NCCCC[C@H](NC(=O)N[C@@H](CCC(=O)O)C(=O)O)C(=O)O)CC2)nn1)C[B-](F)(F)F [^18F-5]")
0.15
>>> observed("C[N+](C)(Cc1cn(Cc2ccc(C(=O)NCCCC[C@H](NC(=O)N[C@@H](CCC(=O)O)C(=O)O)C(=O)O)cc2)nn1)C[B-](F)(F)F [^18F-2]")
0.12
>>> observed("C[N+](C)(Cc1cn(CC(=O)N[C@@H](CCC(=O)O)C(=O)NCCCC[C@H](NC(=O)[C@H](CCC(=O)O)NC(=O)Cn2cc(C[N+](C)(C)C[B-](F)(F)F)nn2)C(=O)NC[C@H]2CC[C@H](C(=O)N[C@@H](Cc3ccc4ccccc4c3)C(=O)NCCCC[C@H](NC(=O)N[C@@H](CCC(=O)O)C(=O)O)C(=O)O)CC2)nn1)C[B-](F)(F)F [^18F-8]")
0.13

Turning to the following molecule.
[Q] What does the record list as muscle uptake for C[N+](C)(Cc1cn(Cc2ccc(C(=O)NCCCC[C@H](NC(=O)N[C@@H](CCC(=O)O)C(=O)O)C(=O)O)cn2)nn1)C[B-](F)(F)F [^18F-3] ?
[A] 0.09

====

Overview of recorded kidney uptake for various compounds
System: LNCaP xenografts
Experiment: Ex vivo biodistribution and blocking studies in mice bearing LNCaP xenografts
Details: 1 h after injection, unblocked
Supply the numeric figure in %ID/g, leaving out any unit text.

Here are 3 compounds together with their reported answers.
>>> observed("O=C(O)CCC(NC(=O)NC(CCCCNC(=O)c1ccc([18F])nc1)C(=O)O)C(=O)O (stereo not shown) [^18F-DCFPyL, reference compound]")
123.76
>>> observed("C[N+](C)(Cc1cn(CC(=O)N[C@@H](CCC(=O)O)C(=O)NCCCC[C@H](NC(=O)[C@H](CCC(=O)O)NC(=O)Cn2cc(C[N+](C)(C)C[B-](F)(F)F)nn2)C(=O)NC[C@H]2CC[C@H](C(=O)N[C@@H](Cc3ccc4ccccc4c3)C(=O)NCCCC[C@H](NC(=O)N[C@@H](CCC(=O)O)C(=O)O)C(=O)O)CC2)nn1)C[B-](F)(F)F [^18F-8]")
143.85
>>> observed("C[N+](C)(Cc1cn(Cc2ccc(C(=O)NCCCC[C@H](NC(=O)N[C@@H](CCC(=O)O)C(=O)O)C(=O)O)cn2)nn1)C[B-](F)(F)F [^18F-3]")
51.80

Next item in the queue.
[Q] Requested field: kidney uptake. Item: O=C(O)CC[C@H](NC(=O)N[C@@H](CCCCNC(=O)[C@H](Cc1ccc2ccccc2c1)NC(=O)[C@H]1CC[C@H](CNC(=O)Cn2cc(C[n+]3ccc([B-](F)(F)F)cc3)nn2)CC1)C(=O)O)C(=O)O [^18F-6]
[A] 83.22
